All figures here come from patent US20030022821A1.

Test system: MRSA (methicillin resistant S. aureus)
Format: cell-based
Details: methicillin resistant
Square brackets hold non-standard residues; d marks the D form. Peptide text beside a SMILES is read from it. Bip = N[C@@H](Cc1ccc(-c2ccccc2)cc1)C(=O)O
MIC MRSA listing for selected compounds.
RECORDED ENDPOINT: MIC MRSA (µM)

>>> result_number("CSCC[C@H](NC(=O)[C@H](CCCNC(=N)N)NC(=O)[C@H](Cc1ccc(-c2ccccc2)cc1)NC(=O)[C@H](CCC(N)=O)NC(=O)[C@H](Cc1ccc(-c2ccccc2)cc1)NC(=O)[C@H](CCCNC(=N)N)NC(=O)[C@H](CCCNC(=N)N)NC(=O)[C@H](CSCNC(C)=O)NC(=O)[C@H](CCCCN)NC(=O)[C@@H](N)Cc1ccccc1)C(=O)N[C@@H](CCCCN)C(=O)N[C@@H](CCCCN)C(=O)N[C@@H](CC(C)C)C(=O)NCC(=O)N[C@@H](C)C(=O)O")
1.2
>>> result_number("CSCC[C@H](NC(=O)[C@H](CCCNC(=N)N)NC(=O)[C@H](Cc1ccc2ccccc2c1)NC(=O)[C@H](CCC(N)=O)NC(=O)[C@H](Cc1ccc2ccccc2c1)NC(=O)[C@H](CCCNC(=N)N)NC(=O)[C@H](CCCNC(=N)N)NC(=O)[C@H](CSCNC(C)=O)NC(=O)[C@H](CCCCN)NC(=O)[C@@H](N)Cc1ccccc1)C(=O)N[C@@H](CCCCN)C(=O)N[C@@H](CCCCN)C(=O)N[C@@H](CC(C)C)C(=O)NCC(=O)N[C@@H](C)C(=O)O")
2.4
>>> result_number("CSCC[C@H](NC(=O)[C@H](CCCNC(=N)N)NC(=O)[C@H](Cc1c[nH]c2ccccc12)NC(=O)[C@H](CCC(N)=O)NC(=O)[C@H](Cc1c[nH]c2ccccc12)NC(=O)[C@H](CCCNC(=N)N)NC(=O)[C@H](CCCNC(=N)N)NC(=O)[C@H](Cc1ccc(-c2ccccc2)cc1)NC(=O)[C@H](CCCCN)NC(=O)[C@@H](N)Cc1ccccc1)C(=O)N[C@@H](CCCCN)C(=O)N[C@@H](CCCCN)C(=O)N[C@@H](CC(C)C)C(=O)NCC(=O)N[C@@H](C)C(=O)O [LFB Bip3] (H-FK[Bip]RRWQWRMKKLGA-OH; N-terminus assumed)")
1.2
